Target: CD71 on SK-BR-3 cells (human, UniProt P02786 1-760)
Sequence (P02786 whole entry): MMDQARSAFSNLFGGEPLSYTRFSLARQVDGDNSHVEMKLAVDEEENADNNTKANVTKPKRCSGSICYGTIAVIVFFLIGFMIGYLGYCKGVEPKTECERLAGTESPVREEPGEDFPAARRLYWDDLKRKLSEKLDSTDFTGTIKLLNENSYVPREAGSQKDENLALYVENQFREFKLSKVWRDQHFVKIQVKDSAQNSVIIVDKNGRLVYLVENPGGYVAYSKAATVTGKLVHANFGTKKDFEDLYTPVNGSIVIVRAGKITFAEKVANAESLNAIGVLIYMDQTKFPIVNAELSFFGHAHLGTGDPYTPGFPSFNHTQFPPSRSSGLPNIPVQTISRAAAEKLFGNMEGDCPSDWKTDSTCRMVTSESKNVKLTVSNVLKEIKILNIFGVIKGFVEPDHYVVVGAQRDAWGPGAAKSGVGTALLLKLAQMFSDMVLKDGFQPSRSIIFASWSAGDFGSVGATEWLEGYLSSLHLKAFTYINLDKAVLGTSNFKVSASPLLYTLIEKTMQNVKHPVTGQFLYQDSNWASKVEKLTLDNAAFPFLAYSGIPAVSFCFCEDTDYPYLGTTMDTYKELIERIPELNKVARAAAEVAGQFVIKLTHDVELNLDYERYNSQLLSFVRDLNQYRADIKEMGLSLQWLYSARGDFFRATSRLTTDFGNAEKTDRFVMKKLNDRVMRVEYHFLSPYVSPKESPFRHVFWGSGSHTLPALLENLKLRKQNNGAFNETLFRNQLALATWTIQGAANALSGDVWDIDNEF
Test: cell-based or functional assay
readout_name: IC50, SKBR-3 viability, MMAF conjugate, second unlabelled column (+/- human transferrin) (nM)
Could you give me the number in nM? Just the number is fine.

Some binders with recorded IC50, SKBR-3 viability, MMAF conjugate, second unlabelled column (+/- human transferrin):
| binder | readout_number |
| --- | --- |
| SEQ ID NO 302 (designed binder, FN3 domain) MLPAPKNLVVSRVTEDSARLSWTAPDAAFDSFDIYYPEYYDRGEAIVLTVPGSERSYDLTGLKPGTEYTVYIDGVKGGGGSGPLSAIFTT | 27.8 |
| SEQ ID NO 115 (designed binder, FN3 domain) MLPAPKNLVVSRVTEDSARLSWTAPDAAFDSFFIGYLEPQPPGEAIVLTVPGSERSYDLTGLKPGTEYNVTIQGVKGGFPSMPLSAIFTTT | 10.4 |
| SEQ ID NO 134 (designed binder, FN3 domain) MLPAPKNLVVSRVTEDSARLSWTAPDAAFDSFWIDYYERKYVGEAIVLTVPGSERSYDLTGLKPGTEYEVTIYGVKGGWYSDPLSAIFTT | 8.54 |
| SEQ ID NO 96 (designed binder) MLPAPKNLVVSRVTEDSARLSWTAPDAAFDSFFIGYLEPQPPGEAIVLTVPGSERSYDLTGLKPGTEYNVTIQGVKGGFPSMPLSAIFTT | 27 |

Qu. Specify reported IC50, SKBR-3 viability, MMAF conjugate, second unlabelled column (+/- human transferrin) for the binder shown: SEQ ID NO 214 (designed binder, FN3 domain) MLPAPKNLVVSRVTEDSARLSWTAPDAAFDSFAIPYGERQELGEAIVLTVPGSERSYDLTGLKPGTEYFVVIQGVKGGQPSYPLSAIFTT
Ans. 29.2
